Target: SARS-CoV-2 N-CTD (SARS-CoV-2, UniProt P0DTC9 250-365)
Test: BLI
Details: protein: recombinant; tags: 6xHis-SUMO tag removed by Ulp1; chain copies: 2; label: 5' biotin
Property Measured: Kd (µM)
Expressed in µM, but write only the number.

Q. Please give the documented Kd of AAACGAACUU (ssRNA) [TRS-3 (RNA3)]
A. 150

Q. Please give the documented Kd of AAACGAAC (ssRNA) [TRS-2 (RNA2)]
A. 180

Q. Please give the documented Kd of ACGAAC (ssRNA) [TRS-1 (RNA1)]
A. 320
